Molecular target: T1, cynomolgus SIRP-α D1 domain (SEQ ID NO:11) (cynomolgus, UniProt Q5TFQ8 30-148 (human entry), limits assumed)
T1 construct: also called cyno1
T1 chain: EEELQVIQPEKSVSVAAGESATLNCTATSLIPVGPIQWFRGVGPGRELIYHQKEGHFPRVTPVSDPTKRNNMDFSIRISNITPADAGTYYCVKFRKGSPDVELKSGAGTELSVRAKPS
Experiment: SPR, antibody immobilised on GLC chip
reported-endpoint: Kd (nM)
Write down the numeric answer in nM and omit the unit.

{"binder": "antibody 135 wt/wt (parental) (antibody, human IgG1, V domains shown, Human IgG1 with L234A/L235A/G237A/N297A; Labels are in the order VL/VH; also called AB135a) VH: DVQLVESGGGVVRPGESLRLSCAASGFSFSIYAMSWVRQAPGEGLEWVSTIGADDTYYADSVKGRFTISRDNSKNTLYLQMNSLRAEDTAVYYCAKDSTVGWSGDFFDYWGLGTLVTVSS VL: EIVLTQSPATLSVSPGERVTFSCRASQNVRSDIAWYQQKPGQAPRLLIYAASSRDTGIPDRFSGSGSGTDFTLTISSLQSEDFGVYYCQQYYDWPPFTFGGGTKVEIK", "Kd, nM": 0.0969}
{"binder": "antibody 119 variant Mut/mut_V34M (antibody, human IgG1, V domains shown, Human IgG1 with L234A/L235A/G237A/N297A; Labels are in the order VL/VH) VH: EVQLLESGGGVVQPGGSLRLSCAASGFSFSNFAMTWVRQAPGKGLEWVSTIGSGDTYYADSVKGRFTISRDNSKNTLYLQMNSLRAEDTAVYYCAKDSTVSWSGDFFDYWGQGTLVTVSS VL: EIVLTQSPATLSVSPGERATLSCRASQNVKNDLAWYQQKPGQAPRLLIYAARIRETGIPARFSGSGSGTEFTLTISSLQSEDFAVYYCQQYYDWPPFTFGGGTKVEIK", "Kd, nM": 0.118}
{"binder": "antibody 135 variant mut/mut (antibody, human IgG1, V domains shown, Human IgG1 with L234A/L235A/G237A/N297A; Labels are in the order VL/VH) VH: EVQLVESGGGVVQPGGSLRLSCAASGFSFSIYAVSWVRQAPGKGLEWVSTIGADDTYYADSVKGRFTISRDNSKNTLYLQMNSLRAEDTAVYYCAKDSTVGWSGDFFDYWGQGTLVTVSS VL: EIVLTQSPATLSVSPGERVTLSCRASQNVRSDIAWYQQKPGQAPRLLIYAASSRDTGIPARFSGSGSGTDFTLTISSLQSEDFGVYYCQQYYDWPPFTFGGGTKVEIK", "Kd, nM": 0.127}
{"binder": "AB119 Wt/wt with hIgG4 (antibody, V domains shown, Human IgG4 Fc region with S228P (EU numbering); only variable domains tied to the clone) VH: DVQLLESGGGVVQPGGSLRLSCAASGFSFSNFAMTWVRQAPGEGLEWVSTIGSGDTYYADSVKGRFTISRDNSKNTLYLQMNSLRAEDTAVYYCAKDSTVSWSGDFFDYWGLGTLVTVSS VL: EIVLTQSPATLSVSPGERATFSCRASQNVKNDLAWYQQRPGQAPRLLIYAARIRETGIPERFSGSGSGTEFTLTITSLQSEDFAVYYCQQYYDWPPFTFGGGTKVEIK", "Kd, nM": 0.116}
{"binder": "antibody 135 variant mut/wt (antibody, human IgG1, V domains shown, Human IgG1 with L234A/L235A/G237A/N297A; Labels are in the order VL/VH) VH: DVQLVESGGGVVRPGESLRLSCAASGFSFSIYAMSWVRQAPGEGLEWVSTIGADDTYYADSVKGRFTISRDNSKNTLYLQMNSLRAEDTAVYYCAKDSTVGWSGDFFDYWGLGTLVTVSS VL: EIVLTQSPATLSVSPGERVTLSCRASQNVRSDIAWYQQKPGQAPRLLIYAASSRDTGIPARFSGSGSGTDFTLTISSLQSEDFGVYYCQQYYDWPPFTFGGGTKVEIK", "Kd, nM": 0.102}
{"binder": "AB119a (antibody, human IgG1, V domains shown, Full-length human IgG1 with L234A, L235A, G237A and N297A; only variable domains tied to the clone) VH: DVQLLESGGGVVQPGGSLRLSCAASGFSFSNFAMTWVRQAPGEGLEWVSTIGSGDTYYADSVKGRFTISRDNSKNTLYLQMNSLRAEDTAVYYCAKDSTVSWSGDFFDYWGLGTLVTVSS VL: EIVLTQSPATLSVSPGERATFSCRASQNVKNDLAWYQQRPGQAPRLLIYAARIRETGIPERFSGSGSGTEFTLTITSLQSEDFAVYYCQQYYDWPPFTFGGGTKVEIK", "Kd, nM": 0.112}

Query :: Could you tell me which Kd is on file for antibody 135 variant wt/mut V34M (antibody, human IgG1, V domains shown, Human IgG1 with L234A/L235A/G237A/N297A; Labels are in the order VL/VH) VH: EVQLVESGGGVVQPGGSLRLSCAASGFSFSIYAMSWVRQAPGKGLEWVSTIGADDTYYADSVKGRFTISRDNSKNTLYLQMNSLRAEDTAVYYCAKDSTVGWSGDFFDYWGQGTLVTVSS VL: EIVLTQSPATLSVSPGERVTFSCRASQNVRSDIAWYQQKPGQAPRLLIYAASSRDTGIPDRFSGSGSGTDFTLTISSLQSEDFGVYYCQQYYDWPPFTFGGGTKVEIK ?
Result :: 0.0794

Query :: Could you tell me which Kd is on file for antibody 119 variant wt/mut (VL wt / VH mut) (antibody, human IgG1, V domains shown, Human IgG1 with L234A/L235A/G237A/N297A; Labels are in the order VL/VH) VH: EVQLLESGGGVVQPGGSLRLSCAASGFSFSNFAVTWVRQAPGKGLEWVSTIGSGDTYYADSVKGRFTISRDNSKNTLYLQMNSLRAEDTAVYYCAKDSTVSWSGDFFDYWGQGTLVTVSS VL: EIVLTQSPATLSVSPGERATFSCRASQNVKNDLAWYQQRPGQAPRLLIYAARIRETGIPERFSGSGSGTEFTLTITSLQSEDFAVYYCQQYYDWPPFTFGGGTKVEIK ?
Result :: 0.155

Query :: Could you tell me which Kd is on file for antibody 119 variant mut/wt (VL mut all / VH wt) (antibody, human IgG1, V domains shown, Human IgG1 with L234A/L235A/G237A/N297A; Labels are in the order VL/VH) VH: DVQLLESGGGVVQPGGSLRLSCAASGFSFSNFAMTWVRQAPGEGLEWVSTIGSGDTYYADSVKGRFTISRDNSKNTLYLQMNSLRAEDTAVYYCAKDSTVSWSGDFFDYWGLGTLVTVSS VL: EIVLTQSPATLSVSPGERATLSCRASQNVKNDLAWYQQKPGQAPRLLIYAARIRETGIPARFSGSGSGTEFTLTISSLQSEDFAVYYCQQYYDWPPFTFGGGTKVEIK ?
Result :: 0.138

Query :: Could you tell me which Kd is on file for antibody 119 variant Mut/mut (VL mut all / VH mut) (antibody, human IgG1, V domains shown, Human IgG1 with L234A/L235A/G237A/N297A; Labels are in the order VL/VH) VH: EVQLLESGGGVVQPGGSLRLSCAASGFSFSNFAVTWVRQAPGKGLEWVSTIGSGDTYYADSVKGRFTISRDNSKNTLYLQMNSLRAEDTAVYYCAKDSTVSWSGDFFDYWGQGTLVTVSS VL: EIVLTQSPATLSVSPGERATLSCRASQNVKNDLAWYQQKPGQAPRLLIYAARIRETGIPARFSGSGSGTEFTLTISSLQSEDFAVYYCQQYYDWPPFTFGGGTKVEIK ?
Result :: 0.195

Query :: Could you tell me which Kd is on file for antibody 135 variant wt/mut (antibody, human IgG1, V domains shown, Human IgG1 with L234A/L235A/G237A/N297A; Labels are in the order VL/VH) VH: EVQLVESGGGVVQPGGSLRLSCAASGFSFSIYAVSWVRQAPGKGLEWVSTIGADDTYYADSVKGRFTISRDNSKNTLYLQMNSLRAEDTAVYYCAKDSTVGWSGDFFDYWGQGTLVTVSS VL: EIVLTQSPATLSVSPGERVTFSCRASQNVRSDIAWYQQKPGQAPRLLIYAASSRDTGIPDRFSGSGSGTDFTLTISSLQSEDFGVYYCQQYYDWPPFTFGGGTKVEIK ?
Result :: 0.125
